Examples of binders with documented koff follow.
Target: T1, RSV F glycoprotein (NUF4) (respiratory syncytial virus)
T1 chain 1: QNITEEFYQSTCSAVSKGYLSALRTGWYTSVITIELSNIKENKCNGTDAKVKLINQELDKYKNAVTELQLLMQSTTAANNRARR
T1 chain 2: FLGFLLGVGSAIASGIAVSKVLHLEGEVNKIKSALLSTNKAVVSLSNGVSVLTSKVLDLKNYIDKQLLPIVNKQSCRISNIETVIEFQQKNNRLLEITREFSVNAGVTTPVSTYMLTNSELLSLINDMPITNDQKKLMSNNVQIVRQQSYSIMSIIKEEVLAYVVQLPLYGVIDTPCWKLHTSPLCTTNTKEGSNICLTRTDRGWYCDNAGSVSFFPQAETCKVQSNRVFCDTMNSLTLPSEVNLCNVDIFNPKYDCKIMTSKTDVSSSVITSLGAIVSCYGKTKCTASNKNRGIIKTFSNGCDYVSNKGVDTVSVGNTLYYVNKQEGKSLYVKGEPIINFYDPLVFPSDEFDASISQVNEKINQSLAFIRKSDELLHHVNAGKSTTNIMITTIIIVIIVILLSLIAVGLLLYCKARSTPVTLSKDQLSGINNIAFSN
Experiment: BIAcore, mAb vs NUF4 (2:1)
quantityMeasured: koff (s⁻¹)

A13c4 (monoclonal antibody) (antibody, V domains shown, mAb with framework and constant regions of SYNAGIS) VH: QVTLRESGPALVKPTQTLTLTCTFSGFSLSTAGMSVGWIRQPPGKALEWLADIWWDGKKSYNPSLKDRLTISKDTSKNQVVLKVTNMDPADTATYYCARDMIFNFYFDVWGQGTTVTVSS VL: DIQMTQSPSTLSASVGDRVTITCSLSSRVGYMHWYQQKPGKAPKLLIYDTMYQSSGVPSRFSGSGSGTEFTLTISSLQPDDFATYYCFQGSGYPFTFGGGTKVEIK: 0.000225
A12a6 (monoclonal antibody) (antibody, V domains shown, mAb with framework and constant regions of SYNAGIS) VH: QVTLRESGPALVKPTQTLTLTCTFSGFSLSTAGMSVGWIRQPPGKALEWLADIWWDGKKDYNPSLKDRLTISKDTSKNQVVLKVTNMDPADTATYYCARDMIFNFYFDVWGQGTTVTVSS VL: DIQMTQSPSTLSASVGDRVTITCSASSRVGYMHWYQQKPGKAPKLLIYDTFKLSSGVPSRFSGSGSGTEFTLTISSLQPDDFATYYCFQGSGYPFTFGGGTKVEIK: 0.000408
P12f2 (monoclonal antibody) (antibody, V domains shown, mAb with framework and constant regions of SYNAGIS; also called Pf12) VH: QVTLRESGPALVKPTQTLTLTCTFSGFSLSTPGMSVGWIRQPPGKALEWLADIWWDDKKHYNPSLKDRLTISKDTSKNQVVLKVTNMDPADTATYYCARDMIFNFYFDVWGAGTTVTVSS VL: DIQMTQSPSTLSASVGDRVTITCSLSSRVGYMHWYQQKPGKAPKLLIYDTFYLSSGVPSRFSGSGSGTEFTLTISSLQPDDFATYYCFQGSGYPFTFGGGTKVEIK: 0.000236
